Provide the recorded pIC50 for the entries that follow.
Target: CDK1/Cyclin B1, GST-tag (Homo sapiens, UniProt P06493)
Construct: GST
Sequence (P06493 whole entry): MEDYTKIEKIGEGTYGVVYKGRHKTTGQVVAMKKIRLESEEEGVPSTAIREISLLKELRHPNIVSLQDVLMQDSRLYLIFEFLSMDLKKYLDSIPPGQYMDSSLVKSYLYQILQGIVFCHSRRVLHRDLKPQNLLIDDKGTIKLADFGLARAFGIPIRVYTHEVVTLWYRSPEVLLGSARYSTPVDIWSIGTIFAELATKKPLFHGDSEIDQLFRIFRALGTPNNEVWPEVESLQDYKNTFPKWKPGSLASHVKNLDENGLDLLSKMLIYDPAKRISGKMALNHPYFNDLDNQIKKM
Sequence (P14635 whole entry partner): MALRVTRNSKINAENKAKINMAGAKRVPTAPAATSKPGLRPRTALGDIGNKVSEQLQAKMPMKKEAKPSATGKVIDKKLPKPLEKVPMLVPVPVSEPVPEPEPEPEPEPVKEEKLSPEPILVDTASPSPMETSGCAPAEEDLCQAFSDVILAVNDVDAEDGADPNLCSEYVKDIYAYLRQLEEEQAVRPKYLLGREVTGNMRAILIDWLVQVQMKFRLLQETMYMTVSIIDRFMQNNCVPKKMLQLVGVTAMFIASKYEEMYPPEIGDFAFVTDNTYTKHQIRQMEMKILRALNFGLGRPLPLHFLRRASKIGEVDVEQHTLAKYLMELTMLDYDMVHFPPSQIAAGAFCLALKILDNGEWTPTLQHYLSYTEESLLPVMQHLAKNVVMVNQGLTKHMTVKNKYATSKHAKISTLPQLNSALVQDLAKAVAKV
Test: CDK1/Cyclin B1 biochemical phosphorylation assay (Caliper mobility shift)
Conditions: apparent IC50; 1.0 mM ATP or ATP Km; 1.5 nM enzyme; 25° C.
pIC50: −log10 of the molar value.

Worked set:
- FC(F)Oc1cc(Nc2cnc3cnn(C[C@H]4CCOC4)c3n2)n[nH]1 (single isomer, unassigned) [Example 144]: > 7.00
- FC(F)Oc1cc(Nc2cnc3cnn(CCc4cn[nH]c4)c3n2)n[nH]1 [Example 129]: 6.30 to 7.00
- CC(C)(C1CCOCC1)n1ncc2ncc(Nc3cc(OC(F)F)[nH]n3)nc21 [Example 127]: ≤ 6.30

Quick check: pIC50 on CDK1/Cyclin B1, GST-tag (Homo sapiens, UniProt P06493), item C[C@H](CO)Cn1ncc2ncc(Nc3cc(OC(F)F)[nH]n3)nc21 [Example 199] ? ≤ 6.30

---

Molecular target: CDK2/Cyclin E (Homo sapiens, UniProt P24941)
Assay: CDK2/Cyclin E biochemical phosphorylation assay (Caliper mobility shift)
Details: apparent IC50; 1.0 mM ATP or ATP Km; 1.25 nM enzyme; 25° C.; read-out: CDK2/cyclin E1 IC50
pIC50: −log10 of the molar value.
Provide the recorded pIC50 for the entries that follow.

Worked set:
- COc1cc(Nc2cnc3cnn([C@@H](C)C4COC4)c3n2)n[nH]1: 7.70 to 8.00
- FC(F)Oc1cc(Nc2cnc3cnn([C@@H]4CCCOC4)c3n2)n[nH]1: 7.00 to 7.52
- O[C@H]1CC[C@@H](Cn2ncc3ncc(Nc4cc(OC(F)F)[nH]n4)nc32)CC1 (single isomer, unassigned) [Example 172]: 7.70 to 8.00
- CC[C@@H]([C@H](C)O)n1ncc2ncc(Nc3cc(OC(F)F)[nH]n3)nc21 (single isomer, unassigned): 7.00 to 7.52

Parameter requested: pIC50. Apply to each item below.
1. C[C@@H](c1ccc(F)nc1)n1ncc2ncc(Nc3cc(OC(F)F)[nH]n3)nc21 (single isomer, unassigned) [Example 152]
2. FC(F)Oc1cc(Nc2cnc3cnn(CC45CC(C4)C5)c3n2)n[nH]1
3. FC(F)Oc1cc(Nc2cnc3cnn(C[C@H]4C[C@@H]5[C@H](C4)C5(F)F)c3n2)n[nH]1
4. C[C@@H](C1CCOCC1)n1ncc2ncc(Nc3cc(OC(F)F)[nH]n3)nc21
5. C[C@@H]([C@@H]1COCCO1)n1ncc2ncc(Nc3cc(OC(F)F)[nH]n3)nc21 (single isomer, unassigned) [Example 213]

1: 7.52 to 7.70; 2: ≥ 8.00; 3: ≥ 8.00; 4: ≥ 8.00; 5: 7.70 to 8.00

---

Target: CDK2/Cyclin E (Homo sapiens)
Test: CDK2/Cyclin E biochemical phosphorylation assay (Caliper mobility shift)
Conditions: apparent IC50; 1.0 mM ATP or ATP Km; 1.25 nM enzyme; 25° C.; read-out: CDK2/cyclin E1 IC50
Measured Quantity: IC50

Worked set:
• C[C@@H](C1CC1)n1ncc2ncc(Nc3cc(OC(F)F)[nH]n3)nc21 [Example 51] = ≤ 10 nM
• N#C[C@@H]1C[C@H]1Cn1ncc2ncc(Nc3cc(OC(F)F)[nH]n3)nc21 (single isomer, unassigned) [Example 26] = > 100 nM
• FC(F)Oc1cc(Nc2cnc3cnn(Cc4cccc5[nH]ncc45)c3n2)n[nH]1 [Example 128] = 30 to 100 nM

Now look at this one.
Could you share which IC50 value was measured for O[C@H]1CC[C@@H](n2ncc3ncc(Nc4cc(OC(F)F)[nH]n4)nc32)C1 (single isomer, unassigned) [Example 209] ? > 100 nM

---

Molecular target: CDK2/Cyclin E (Homo sapiens, UniProt P24941)
Experiment: CDK2/Cyclin E biochemical phosphorylation assay (Caliper mobility shift)
Details: apparent IC50; 1.0 mM ATP or ATP Km; 1.25 nM enzyme; 25° C.; read-out: CDK2/cyclin E1 IC50
Measured Quantity: IC50

Worked set:
- FC(F)Oc1cc(Nc2cnc3cnn(CC4CCC(F)(F)CC4)c3n2)n[nH]1: ≤ 10 nM
- FC(F)Oc1cc(Nc2cnc3cnn([C@H](c4ccccn4)C(F)F)c3n2)n[nH]1 (single isomer, unassigned) [Example 149]: 30 to 100 nM

Parameter requested: IC50. Apply to each item below.
1. C[C@@H]([C@H]1CCOC1)n1ncc2ncc(Nc3cc(OC(F)F)[nH]n3)nc21 (single isomer, unassigned)
2. COc1cc(Nc2cnc3cnn(CC4CC4)c3n2)n[nH]1
3. C[C@@H](C1CCOCC1)n1nc(F)c2ncc(Nc3cc(OC(F)F)[nH]n3)nc21
4. C[C@@H](O)c1nn([C@@H](C)C2CCOCC2)c2nc(Nc3cc(OC(F)F)[nH]n3)cnc12 (single isomer, unassigned) [Example 181]
5. OC1(Cn2ncc3ncc(Nc4cc(OC(F)F)[nH]n4)nc32)CCC1

30 to 100 nM
30 to 100 nM
≤ 10 nM
≤ 10 nM
20 to 30 nM

Could you share which IC50 value was measured for COc1cc(Nc2cnc3cnn([C@@H](C)c4cncs4)c3n2)n[nH]1 ? 20 to 30 nM

---

Target: CDK2/Cyclin E (Homo sapiens)
Experiment: CDK2/Cyclin E biochemical phosphorylation assay (Caliper mobility shift)
Conditions: apparent IC50; 1.0 mM ATP or ATP Km; 1.25 nM enzyme; 25° C.; read-out: CDK2/cyclin E1 IC50
Measured Quantity: IC50

Worked set:
• OC[C@@H](c1ccccc1)n1ncc2ncc(Nc3cc(OC(F)F)[nH]n3)nc21 = 30 to 100 nM
• FC(F)Oc1cc(Nc2cnc3cnn(CC45CC(F)(C4)C5)c3n2)n[nH]1 = ≤ 10 nM
• C[C@@H](C1CCOCC1)n1nc(C#N)c2ncc(Nc3cc(OC(F)F)[nH]n3)nc21 = 20 to 30 nM
• FC(F)Oc1cc(Nc2cnc3cnn(CC4COC4)c3n2)n[nH]1 = 10 to 20 nM
• CC[C@@H](c1ccccn1)n1ncc2ncc(Nc3cc(OC(F)F)[nH]n3)nc21 = ≤ 10 nM

Parameter requested: IC50. Apply to each item below.
1. COc1cc(Nc2cnc3cnn([C@@H](C)c4cc(F)ccn4)c3n2)n[nH]1 (single isomer, unassigned) [Example 186]
2. CCOc1cc(Nc2cnc3cnn(CC4CCOCC4)c3n2)n[nH]1

1. 10 to 20 nM
2. ≤ 10 nM

Parameter requested: IC50. Apply to each item below.
1. FC(F)Oc1cc(Nc2cnc3cnn(Cc4cncs4)c3n2)n[nH]1
2. COc1cc(Nc2cnc3cnn(C[C@@H]4CCCOC4)c3n2)n[nH]1

≤ 10 nM
10 to 20 nM

Parameter requested: IC50. Apply to each item below.
1. COc1cc(Nc2cnc3cnn([C@@H](C(F)F)C4CCOCC4)c3n2)n[nH]1 (single isomer, unassigned) [Example 192]
2. COc1cc(Nc2cnc3cnn(Cc4cccnc4)c3n2)n[nH]1
3. FC(F)Oc1cc(Nc2cnc3cnn(C[C@H]4CCOC4)c3n2)n[nH]1 (single isomer, unassigned) [Example 143]
4. O=C1C[C@H](Cn2ncc3ncc(Nc4cc(OC(F)F)[nH]n4)nc32)CN1 (single isomer, unassigned)

> 100 nM
10 to 20 nM
10 to 20 nM
≤ 10 nM

---

Target: CDK1/Cyclin B1, GST-tag (Homo sapiens)
Construct: GST
Assay: CDK1/Cyclin B1 biochemical phosphorylation assay (Caliper mobility shift)
Conditions: apparent IC50; 1.0 mM ATP or ATP Km; 1.5 nM enzyme; 25° C.
pIC50: −log10 of the molar value.
Measured Quantity: pIC50

Worked set:
• C[C@@H](c1cc(Cl)ccn1)n1ncc2ncc(Nc3cc(OC(F)F)[nH]n3)nc21 (single isomer, unassigned) [Example 189] = ≤ 6.30
• C[C@@H]([C@@H]1COCCO1)n1ncc2ncc(Nc3cc(OC(F)F)[nH]n3)nc21 (single isomer, unassigned) [Example 214] = ≤ 6.30
• Cc1nn(Cc2cccnc2)c2nc(Nc3cc(OC(F)F)[nH]n3)cnc12 [Example 84] = ≤ 6.30
• [2H]C([2H])(c1cccnc1)n1ncc2ncc(Nc3cc(OC(F)F)[nH]n3)nc21 [Example 224] = ≤ 6.30

Parameter requested: pIC50. Apply to each item below.
1. O[C@H]1CC[C@H](n2ncc3ncc(Nc4cc(OC(F)F)[nH]n4)nc32)CC1 [Example 3]
2. FC(F)Oc1cc(Nc2cnc3cnn(C[C@H]4CCCOC4)c3n2)n[nH]1 (single isomer, unassigned) [Example 142]

6.30 to 7.00
6.30 to 7.00

---

Molecular target: CDK2/Cyclin E (Homo sapiens, UniProt P24941)
Test: CDK2/Cyclin E biochemical phosphorylation assay (Caliper mobility shift)
Settings: apparent IC50; 1.0 mM ATP or ATP Km; 1.25 nM enzyme; 25° C.; read-out: CDK2/cyclin E1 IC50
pIC50: −log10 of the molar value.
Provide the recorded pIC50 for the entries that follow.

Worked set:
• Fc1cccc(Cn2ncc3ncc(Nc4cc(OC(F)F)[nH]n4)nc32)c1 = 7.52 to 7.70
• C[C@]1(Cn2ncc3ncc(Nc4cc(OC(F)F)[nH]n4)nc32)CCOC1 (single isomer, unassigned) [Example 165] = 7.00 to 7.52
• COc1cc(Nc2cnc3cnn([C@@H](C(F)F)C4CCOCC4)c3n2)n[nH]1 (single isomer, unassigned) [Example 193] = 7.70 to 8.00

Parameter requested: pIC50. Apply to each item below.
1. FC(F)Oc1cc(Nc2cnc3cnn(Cc4nccs4)c3n2)n[nH]1
2. N#C[C@@]1(Cn2ncc3ncc(Nc4cc(OC(F)F)[nH]n4)nc32)CCOC1 (single isomer, unassigned) [Example 170]
3. O[C@@H]1C[C@H]1Cn1ncc2ncc(Nc3cc(OC(F)F)[nH]n3)nc21 (single isomer, unassigned) [Example 180]

["7.00 to 7.52", "< 7.00", "7.52 to 7.70"]
